System: human diploid embryonic lung cell line MRC-5
Assay: XTT cytotoxicity assay on MRC-5 cells
Assay type: cell-based
Conditions: 60 µM, XTT
Procedure: In order to assess the cytotoxicity of these novel quinolone derivatives, the effect on the viability of a human lung fibroblast cell line MRC-5, was measured using XTT proliferation assay. […] The cytotoxic activity of the synthetic compounds was determined by means of an XTT Cell Proliferation Kit II (Roche Diagnostics, Mannheim, Germany) using the human diploid embryonic lung cell line MRC-5 [11]. […]
Assign Metabolic active MRC-5 cells (%) to each entry below.
Give just the numeric value; % need not be written.

Record CCCCCCCC#CCCc1cc(=O)c2ccccc2n1CC ; system human diploid embryonic lung cell line MRC-5; Metabolic active MRC-5 cells (%) = 100

Record CCCCCCCCCCC#CCCc1cc(=O)c2ccccc2n1CCC ; system human diploid embryonic lung cell line MRC-5; Metabolic active MRC-5 cells (%) = 19.8

Record CCCCCCCCCCC#CCCc1cc(=O)c2ccccc2n1C ; system human diploid embryonic lung cell line MRC-5; Metabolic active MRC-5 cells (%) = 95.8

Record CCCCCCC#CCCc1cc(=O)c2ccccc2n1C ; system human diploid embryonic lung cell line MRC-5; Metabolic active MRC-5 cells (%) = 97.5

Record CCCCCCCCC#Cc1cc(=O)c2ccccc2n1CCCC ; system human diploid embryonic lung cell line MRC-5; Metabolic active MRC-5 cells (%) = 67.2

Record CCCCCCCCC#CCCc1cc(=O)c2ccccc2n1CC ; system human diploid embryonic lung cell line MRC-5; Metabolic active MRC-5 cells (%) = 94.7

Record CCCCCCCCCCC#CCCc1cc(=O)c2ccccc2n1CC ; system human diploid embryonic lung cell line MRC-5; Metabolic active MRC-5 cells (%) = 93.3

Record CCCCCCCCC#CCCc1cc(=O)c2ccccc2n1CCC ; system human diploid embryonic lung cell line MRC-5; Metabolic active MRC-5 cells (%) = 69.1

Record CCCCCCCCC#CCCc1cc(=O)c2ccccc2n1CCCC ; system human diploid embryonic lung cell line MRC-5; Metabolic active MRC-5 cells (%) = 67.5

Record CCCCCCC#CCCc1cc(=O)c2ccccc2n1CCC ; system human diploid embryonic lung cell line MRC-5; Metabolic active MRC-5 cells (%) = 100

Record CCCCCCCC#CCCc1cc(=O)c2ccccc2n1CCC ; system human diploid embryonic lung cell line MRC-5; Metabolic active MRC-5 cells (%) = 91.7

Record CCCCCCCC#CCCc1cc(=O)c2ccccc2n1C ; system human diploid embryonic lung cell line MRC-5; Metabolic active MRC-5 cells (%) = 98.7

Record CCCCCCCCC#CCCc1cc(=O)c2ccccc2n1C ; system human diploid embryonic lung cell line MRC-5; Metabolic active MRC-5 cells (%) = 95.1

Record CCCCCCCCCCCCC#Cc1cc(=O)c2ccccc2n1C ; system human diploid embryonic lung cell line MRC-5; Metabolic active MRC-5 cells (%) = 97.1

Record CCCCCCCCC#Cc1cc(=O)c2ccccc2n1CC ; system human diploid embryonic lung cell line MRC-5; Metabolic active MRC-5 cells (%) = 56.5
